- ASSAYED_TARGET: K-RasG12C (1-169) (Homo sapiens, UniProt P01116, G12C)
- Construct: Un-tagged recombinant K-Ras G12C (1-169) at 4 μM in Buffer A; hexahistidine (cleaved yes); made in house; host or cells: Escherichia coli BL21 (DE)
- Sequence (P01116 1-169 isoform P01116-2 G12C): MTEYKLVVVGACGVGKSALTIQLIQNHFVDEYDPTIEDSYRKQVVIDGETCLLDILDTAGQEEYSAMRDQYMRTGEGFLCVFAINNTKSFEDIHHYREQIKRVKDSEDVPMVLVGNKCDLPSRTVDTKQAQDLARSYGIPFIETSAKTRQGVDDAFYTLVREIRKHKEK
- EXPERIMENT_NOTES: Mass spectrometric screen for extent of covalent labeling
- Assay type: binding
- EXPERIMENTAL_CONTEXT: 24 h, 10 micromolar, 24 hrs; read-out: Percent reduction in activity of compound at 10 micromolar relative to control (no compound), 24 hrs
MEASUREMENT_TYPE: percent covalent labeling at 10 µM

Check out these entries, answers already filled in.
# COMPOUND, ASSAYED_TARGET, percent covalent labeling at 10 µM
measured = [
    ("C=CS(=O)(=O)NC1CCN(C(=O)COc2cc(Br)c(Cl)cc2Cl)CC1 [Ras-040]", "K-RasG12C (1-169) (Homo sapiens, UniProt P01116, G12C)", "20 to 40%"),
    ("C=CS(=O)(=O)NCC1CCN(C(=O)COc2ccc(Cl)cc2Cl)CC1 [JO-02-112C]", "K-RasG12C (1-169) (Homo sapiens, UniProt P01116, G12C)", "≤ 5%"),
    ("C=CS(=O)(=O)NC1CCN(C(=O)COc2cc(Cl)c(Cl)cc2I)CC1 [Ras-053]", "K-RasG12C (1-169) (Homo sapiens, UniProt P01116, G12C)", "40 to 60%"),
    ("C=CS(=O)(=O)NCC(=O)Nc1cc(-c2cccs2)n[nH]1 [JO-02-125]", "K-RasG12C (1-169) (Homo sapiens, UniProt P01116, G12C)", "20 to 40%"),
    ("C=CS(=O)(=O)NC1CCN(C(=O)COc2ccc(Cl)cc2C)CC1 [Ras-018]", "K-RasG12C (1-169) (Homo sapiens, UniProt P01116, G12C)", "20 to 40%"),
]

Form field: reported percent covalent labeling at 10 µM of C=CS(=O)(=O)NC1CCN(C(=O)c2cc3cc(OC)ccc3[nH]2)CC1 [JO-02-49C]
≤ 5%

Form field: reported percent covalent labeling at 10 µM of C=CS(=O)(=O)NC1CCN(C(=O)CNc2cc(Cl)c(Cl)cc2O)CC1 [Ras-055]
> 60%

Form field: reported percent covalent labeling at 10 µM of O=C(NC1CCN(C(=O)CNc2cc(Cl)c(Cl)cc2I)CC1)C1CO1 (centres unmarked) [JO-02-152]
20 to 40%

Form field: reported percent covalent labeling at 10 µM of C=CS(=O)(=O)NC1CCN(C(=O)COc2ccc(Cl)cc2C#N)CC1 [Ras-021]
≤ 5%

Form field: reported percent covalent labeling at 10 µM of C=CS(=O)(=O)C1CCC2(CC1)CCN(C(=O)COc1ccc(Cl)cc1Cl)C2 (centres unmarked) [JO-02-112B]
5 to 20%

Form field: reported percent covalent labeling at 10 µM of C=CS(=O)(=O)N1CC2CN(C(=O)COc3ccc(Cl)cc3Cl)CC2C1 (centres unmarked) [JO-02-74A]
20 to 40%
